Biological target: C5a receptor (Homo sapiens, UniProt P21730)
Sequence (P21730 1-350): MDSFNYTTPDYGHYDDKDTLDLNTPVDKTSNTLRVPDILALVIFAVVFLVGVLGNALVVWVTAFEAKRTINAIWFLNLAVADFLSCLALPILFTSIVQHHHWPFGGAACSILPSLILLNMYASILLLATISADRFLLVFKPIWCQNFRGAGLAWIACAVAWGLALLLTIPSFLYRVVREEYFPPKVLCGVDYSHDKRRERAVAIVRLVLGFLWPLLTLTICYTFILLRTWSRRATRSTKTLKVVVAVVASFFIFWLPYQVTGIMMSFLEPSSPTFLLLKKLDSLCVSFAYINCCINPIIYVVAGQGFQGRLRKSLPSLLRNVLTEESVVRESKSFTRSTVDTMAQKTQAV
Test: [125I]-C5a Radioligand Binding Assay (competition binding, differentiated U937 cells)
Details: read-out: [125I]-C5a Binding % Inhibition 10 μM, test compound 10 μM; [125I]-C5a 0.05 nM; U937 cells; multiple values = duplicate experiments
Classification field: True = inhibition at 10 µM at or over 80%; False = inhibition at 10 µM under 80%.

Solved entries (count: 5):
compound="CCc1cccc(CC)c1-c1cc(OC)c2c(n1)CCCC2Nc1cc(OC)ccc1C (centres unmarked)" systemtested="C5a receptor (Homo sapiens, UniProt P21730)" labelclass=True
compound="CCc1cccc(CC)c1-c1ccc2c(n1)CCCC2N(CC)c1cccc2ccccc12 (racemic)" systemtested="C5a receptor (Homo sapiens, UniProt P21730)" labelclass=True
compound="CCc1cccc(CC)c1-c1cc(OC)c2c(n1)CCCC2N1Cc2ccccc2C1 (centres unmarked)" systemtested="C5a receptor (Homo sapiens, UniProt P21730)" labelclass=False
compound="CCc1cccc(CC)c1-c1cc(OC)c2c(n1)CCCC2N(CC)c1ncnc2ccccc12 (centres unmarked)" systemtested="C5a receptor (Homo sapiens, UniProt P21730)" labelclass=False
compound="CCc1cccc(CC)c1-c1cc(OC)c2c(n1)CCCC2N(C)N1CCCc2ccccc21 (centres unmarked)" systemtested="C5a receptor (Homo sapiens, UniProt P21730)" labelclass=True

# ---- query compound ----
Ask: Answer whether inhibition at 10 µM of CCc1cccc(CC)c1-c1cc(OC)c2c(n1)CCCC2Nc1ccccc1C (centres unmarked) is greater than or equal to 80%.
Reply: True

###

Biological target: C5a receptor (Homo sapiens)
Sequence (P21730 1-350): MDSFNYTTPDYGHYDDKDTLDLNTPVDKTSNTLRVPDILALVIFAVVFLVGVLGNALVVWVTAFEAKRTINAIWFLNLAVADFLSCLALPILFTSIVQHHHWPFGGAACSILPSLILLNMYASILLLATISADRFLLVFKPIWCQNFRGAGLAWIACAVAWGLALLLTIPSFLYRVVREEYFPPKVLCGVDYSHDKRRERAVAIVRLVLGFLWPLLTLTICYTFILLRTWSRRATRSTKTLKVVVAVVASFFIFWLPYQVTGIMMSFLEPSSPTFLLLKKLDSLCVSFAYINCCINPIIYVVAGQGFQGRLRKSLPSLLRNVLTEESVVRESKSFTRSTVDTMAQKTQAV
Assay: [125I]-C5a Radioligand Binding Assay (competition binding, differentiated U937 cells);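 also: cells preincubated with compound 30 min at room temperature, then 60 min at 4 °C with radioligand, bound counts read by scintillation, nonspecific binding defined with 100 nM C5a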
Conditions: read-out: [125I]-C5a Binding % Inhibition 10 μM, test compound 10 μM; [125I]-C5a 0.05 nM; U937 cells; multiple values = duplicate experiments
Overview of reported inhibition at 10 µM across a group of molecules:
Report the figure in % without appending any unit label.

Reference set (3 entries):
molecule="CCc1cccc(CC)c1-c1cc(OC)c2c(n1)CCCC2N(C)c1ccccc1C (centres unmarked) [Compound 42]" unitabbrev=% measurement=86
molecule="CCc1cccc(CC)c1-c1cc(OC)c2c(n1)CCCC2N(C)c1cc(OC)ccc1C (centres unmarked) [Compound 38]" unitabbrev=% measurement=87
molecule="CCc1cccc(CC)c1-c1cc(OC)c2c(n1)CCCC2OCc1ccccc1 (centres unmarked) [Compound 86]" unitabbrev=% measurement=64

Kindly consider the entry below.
Ask: inhibition at 10 µM for CCc1cccc(CC)c1-c1cc(OC)c2c(n1)CCCC2N1CCc2ccc(Cl)cc2C1 (centres unmarked) [Compound 51] ?
Reply: 89
